Overview of recorded maximal % response at the maximum concentration tested for various compounds
# targetOrSystem: CqsS C170Y (Vibrio cholerae serotype O1, UniProt Q9KM66, C170Y)
# test: Light-based agonist bioassay with CqsS C170Y mutant strain
# Format: cell-based
# appliedConditions: at 50,000 nM
Marks after values point to notes of the source that are not given here.

CCCCCCCCCC(=O)[C@@H](O)CC [compound 1, S-3-hydroxytridecan-4-one, reference compound] ... 20 ^c %
CCCCCCCCOC(=O)C(O)CC (stereo not shown) [compound 9, Octyl 2-hydroxybutanoate] ... 66 ^c %

In: Recorded maximal % response at the maximum concentration tested for CCC(O)C(=O)OCCCCc1ccccc1 (stereo not shown) [compound 37, 4-Phenylbutyl 2-hydroxybutyrate] with CqsS C170Y (Vibrio cholerae serotype O1, UniProt Q9KM66, C170Y), please?
Out: 22 ^c %

In: Recorded maximal % response at the maximum concentration tested for CCC(O)C(=O)OCCCCCc1ccccc1 (stereo not shown) [compound 38, 5-Phenylpentyl 2-hydroxybutyrate] with CqsS C170Y (Vibrio cholerae serotype O1, UniProt Q9KM66, C170Y), please?
Out: 19 ^c %

* * *

# targetOrSystem: wild-type CqsS (Vibrio cholerae serotype O1)
# Assay type: cell-based
# appliedConditions: tested up to 50,000 nM
valueKind: QS activity (in words)

CCCCCCCCO ... no QS activity
CCc1ccccc1CCCOC(=O)C(O)CC (stereo not drawn) ... very weak responses
CCCCc1ccccc1COC(=O)C(O)CC (stereo not drawn) ... very weak responses
CCC(O)C(=O)O (stereo not drawn) [2-hydroxybutyric acid] ... no QS activity

* * *

# targetOrSystem: UniProtKB Q9KM66
# Format: cell-based
valueKind: fold less active (higher EC50) than C8-ester-CAI-1 (9)

Solved cases (10 shown):
CCC/C=C/CCCOC(=O)C(O)CC (centres unmarked) [compound 32, (E)-Oct-4-enyl 2-hydroxybutanoate] ... 1.5 fold
CCc1ccccc1CCCOC(=O)C(O)CC (centres unmarked) [compound 49] ... > 278 fold
CC/C=C/CCCCOC(=O)C(O)CC (centres unmarked) [compound 34, (E)-Oct-5-enyl 2-hydroxybutanoate] ... > 4 fold
CCCCCCCOC(=O)C(O)CC (centres unmarked) [compound 19, Heptyl 2-hydroxybutanoate] ... 2 fold
CCCCCCOCCOC(=O)C(O)CC (centres unmarked) [compound 24, 2-(Hexyloxy)ethyl 2-hydroxybutanoate] ... > 13 fold
CCCCCc1cccc(COC(=O)C(O)CC)c1 (centres unmarked) [compound 46] ... > 9 fold
CCCC/C=C/CCOC(=O)C(O)CC (centres unmarked) [compound 29, (E)-Oct-3-en-1-yl 2-hydroxybutanoate] ... > 4 fold
CCCCCCCCCCOC(=O)C(O)CC (centres unmarked) [compound 21, Decyl 2-hydroxybutanoate] ... greater than 4 fold
CCCCCCOC(=O)C(O)CC (centres unmarked) [compound 18, Hexyl 2-hydroxybutanoate] ... greater than 4 fold
CCCCCOCCOC(=O)C(O)CC (centres unmarked) [compound 22, 2-(Pentyloxy)ethyl 2-hydroxybutanoate] ... > 13 fold

In: Fill blank: measured fold less active (higher EC50) than C8-ester-CAI-1 (9) of the compound CCCCc1ccccc1COC(=O)C(O)CC (centres unmarked) [compound 44] is ____.
Out: > 278 fold

Values from paper PMC3798069
